System: Wolbachia pipientis
Experiment: Anti-Wolbachia Cell-Based Screen
Type: functional
Design: scale not given: in the data most compounds retested in dose-response had high values
Conditions: 5 µM
In all, about 48,000 compounds went through this assay and about 13,000 (27%) showed an effect of 50% or more. The list shows a part of the results.
This listing pairs compounds with measured Percent Effect.
Expressed in %, but write only the number.

Below, each entry is followed by its recorded Percent Effect result.
Please report the recorded Percent Effect for `Cn1cc(CN2CCS(=O)(=O)C(C)(C)C2)cn1` .
112.3

Next entry: `COc1cccc(CN2CC[C@H](c3nnc(C)o3)C2)c1`
12.81

Next entry: COCCn1cc(C(=O)NC2CCS(=O)(=O)C2)c2ccccc2c1=O (stereo not drawn)
102

Next entry: `O=S(=O)(c1ccc(F)cc1)N1CCOC[C@H](Oc2cnccn2)C1`
-9.472

Next entry: `CS(=O)(=O)N1CCC(Oc2cnccn2)CC1`
-17.13

Here's the next entry for you.
Please report the recorded Percent Effect for `Cc1n[nH]c(C)c1S(=O)(=O)N1CCC(Oc2cnccn2)CC1` .
120.8

###

System: Wolbachia pipientis
Test: Anti-Wolbachia Cell-Based Screen
Type: functional
Set-up: scale not given: in the data most compounds retested in dose-response had high values
Conditions: 5 µM
In all, about 48,000 compounds went through this assay and about 13,000 (27%) showed an effect of 50% or more. Some of the results follow.
This listing pairs compounds with measured Percent Effect.
Expressed in %, but write only the number.

Please report the recorded Percent Effect for `Cc1cc(N(C)Cc2cc(C(C)(C)C)n[nH]2)nc(-c2cccnc2)n1` .
-3.665

Next entry: `Cc1cccc(C(=O)N2C[C@@H]3COC[C@@H](CC(=O)N4CCCC4)[C@@H]3C2)n1.O=C(O)C(F)(F)F`
117.6

Next entry: `Cc1cc(C)c(CNC(=O)NCc2nnc3n2CCCCC3)c(=O)[nH]1`
-9.467

Next entry: `CC(C)Cc1cc(C(=O)NCCc2nnc(N)s2)n(C)n1`
6.947

Next entry: `O=C(c1ccsc1)N1C[C@@H]2C[C@@H](c3nnc(C4CC4)o3)O[C@@H]2C1`
1.173

Next entry: `CNC(=O)[C@@H]1COC[C@H]2CN(C(=O)c3ccc(OC)cc3)C[C@H]21`
-23.66

Here's the next entry for you.
Please report the recorded Percent Effect for `CC(C)n1nc(Cn2cccc2)c2c1CN(C1CCOCC1)C2.O=C(O)C(F)(F)F` .
-6.023

###

Tested on: Wolbachia pipientis
Experiment: Anti-Wolbachia Cell-Based Screen
Type: functional
Parameters: scale not given: in the data most compounds retested in dose-response had high values
Details: 5 µM
Among all 48,000 compounds or so, about 13,000 (27%) showed an effect of 50% or more. The list shows a part of the results.
This listing pairs molecules with measured Percent Effect.
Expressed in %, but write only the number.

Below, each entry is followed by its recorded Percent Effect result.
Please report the recorded Percent Effect for CCC(NC(=O)C(C)(C)C)c1ccccc1C (stereo unspecified) .
109.5

Next entry: Cc1cc(C(=O)N2CCCC3(CNC(=O)O3)C2)c2c(C)nn(C)c2n1 (stereo unspecified)
2.308

Next entry: `COC(=O)c1cnc2c(c(C)nn2C)c1OC`
97.33

More entries:
Please report the recorded Percent Effect for CCC(NC(=O)C(C)C)c1ccccc1C (stereo unspecified) .
112

The values you see were collected from ChEMBL document CHEMBL3988442.
